- assayRemarks: Measurement of ultraviolet ray-absorbing ability (spectrophotometer)
- Type: physicochemical
- conditionSummary: 1,1,2,2-tetrachloroethane, 5x10⁻⁴ g/100 ml, optical path length 1 cm
experimentalEndpoint: λmax (maximum absorption wavelength) (nm)
One number for each entry, in nm.

Solved entries:
recordSmiles | unitsSymbol | measuredNumber
O=c1oc(-c2ccc(-c3nc4ccccc4c(=O)o3)cc2)nc2ccccc12 | nm | 350
COc1ccc(C(=O)CC(=O)c2ccc(C(C)(C)C)cc2)cc1 | nm | 360
O=c1oc(-c2ccc3cc(-c4nc5ccccc5c(=O)o4)ccc3c2)nc2ccccc12 | nm | 354

# next compound below
Query: Need λmax (maximum absorption wavelength), item O=c1oc(-c2ccc(-c3ccc(-c4nc5ccccc5c(=O)o4)cc3)cc2)nc2ccccc12
Reply: 348
